test: Ocular tissue concentrations (aqueous humor, vitreous humor, iris, retina, choroid, cornea) after topical ocular, subcutaneous and intravitreal administration; assay type: in vivo, New Zealand White rabbits; conditions: New Zealand White, rabbit, choroid, topical, 1.2 mg/eye, topical ocular 1.2 mg/eye (~0.7 mg/kg/dose); 4 hr; read-out: Choroid tissue Average
Where a name gives a salt, the structure may show the parent alone.
ASSAY ENDPOINT: concentration at 4 hr (ng/g)

[[record]]
molecule = "COC(=O)N[C@@H](Cc1ccccc1)C(=O)N[C@@H](Cc1ccc(NS(=O)(=O)O)cc1)c1csc(-c2cccs2)n1 [Compound 1 sodium salt]"
assay_endpoint = "concentration at 4 hr"
obs_value = 165


* * *

test: Ocular tissue concentrations (aqueous humor, vitreous humor, iris, retina, choroid, cornea) after topical ocular, subcutaneous and intravitreal administration; format: in vivo, New Zealand White rabbits; details: New Zealand White, rabbit, choroid, subcutaneous, 5 mg/kg/dose, TABLE 16: Choroid, 4 hr; free acid, subcutaneous 5 mg/kg/dose, Group 3; read-out: Choroid Average
ASSAY ENDPOINT: concentration at 4 h (ng/g)

[[record]]
smiles_notation = "COC(=O)N[C@@H](Cc1ccccc1)C(=O)N[C@@H](Cc1ccc(NS(=O)(=O)O)cc1)c1csc(-c2cccs2)n1"
assay_endpoint = "concentration at 4 h"
obs_value = 61


* * *

assay: Ocular tissue concentrations (aqueous humor, vitreous humor, iris, retina, choroid, cornea) after topical ocular, subcutaneous and intravitreal administration; format: in vivo, New Zealand White rabbits; details: New Zealand White, rabbit, iris, topical, 1.2 mg/eye, topical ocular 1.2 mg/eye (~0.7 mg/kg/dose); 4 hr; read-out: Iris tissue Average
Where a name gives a salt, the structure may show the parent alone.
ASSAY ENDPOINT: concentration at 4 h (ng/g)

[[record]]
compound = "COC(=O)N[C@@H](Cc1ccccc1)C(=O)N[C@@H](Cc1ccc(NS(=O)(=O)O)cc1)c1csc(-c2cccs2)n1 [Compound 1 sodium salt]"
unit_of_measure = "ng/g"
obs_value = 261


* * *

experiment: Ocular tissue concentrations (aqueous humor, vitreous humor, iris, retina, choroid, cornea) after topical ocular, subcutaneous and intravitreal administration; assay type: in vivo, New Zealand White rabbits; conditions: New Zealand White, rabbit, retina, topical, 1.2 mg/eye, topical ocular 1.2 mg/eye (~0.7 mg/kg/dose); 4 hr; read-out: Retina tissue Average
Where a name gives a salt, the structure may show the parent alone.
ASSAY ENDPOINT: concentration at 4 h

[[record]]
molecule = "COC(=O)N[C@@H](Cc1ccccc1)C(=O)N[C@@H](Cc1ccc(NS(=O)(=O)O)cc1)c1csc(-c2cccs2)n1 [Compound 1 sodium salt]"
assay_endpoint = "concentration at 4 h"
obs_value = "405 ng/g"


* * *

experiment: Plasma concentrations and pharmacokinetic parameters after topical ocular, subcutaneous and intravitreal administration; type: in vivo, New Zealand White rabbits; details: New Zealand White, rabbit, plasma, other: intravitreal, 2.5 mg/eye, intravitreal 2.5 mg/eye (~1.55 mg/kg), solution; 3.0 hr; read-out: plasma Conc., individual rabbit
Where a name gives a salt, the structure may show the parent alone.
ASSAY ENDPOINT: concentration at 3 h (ng/mL)

[[record]]
compound = "COC(=O)N[C@@H](Cc1ccccc1)C(=O)N[C@@H](Cc1ccc(NS(=O)(=O)O)cc1)c1csc(-c2cccs2)n1 [Compound 1 sodium salt]"
assay_endpoint = "concentration at 3 h"
obs_value = 37.5


* * *

assay: Ocular tissue concentrations (aqueous humor, vitreous humor, iris, retina, choroid, cornea) after topical ocular, subcutaneous and intravitreal administration; type: in vivo, New Zealand White rabbits; conditions: New Zealand White, rabbit, iris homogenate, other: intravitreal, 2.5 mg/eye, Iris homogenate, 6.0 hr, OD; sodium salt, intravitreal 2.5 mg/eye, Group 4; read-out: Iris Conc. (ng/mL) OD
ASSAY ENDPOINT: concentration at 6 h (ng/mL)

[[record]]
smiles_notation = "COC(=O)N[C@@H](Cc1ccccc1)C(=O)N[C@@H](Cc1ccc(NS(=O)(=O)O)cc1)c1csc(-c2cccs2)n1"
unit_of_measure = "ng/mL"
obs_value = 35500


* * *

test: Ocular tissue concentrations (aqueous humor, vitreous humor, iris, retina, choroid, cornea) after topical ocular, subcutaneous and intravitreal administration; format: in vivo, New Zealand White rabbits; conditions: New Zealand White, rabbit, retina, subcutaneous, 5 mg/kg/dose, Retina, 1 hr, OS; free acid, subcutaneous 5 mg/kg/dose, Group 3; read-out: Retina Conc. (ng/g) OS
ASSAY ENDPOINT: concentration at 1 h (ng/g)

[[record]]
smiles_notation = "COC(=O)N[C@@H](Cc1ccccc1)C(=O)N[C@@H](Cc1ccc(NS(=O)(=O)O)cc1)c1csc(-c2cccs2)n1"
assay_endpoint = "concentration at 1 h"
unit_of_measure = "ng/g"
obs_value = 6.93


* * *

assay: Ocular tissue concentrations (aqueous humor, vitreous humor, iris, retina, choroid, cornea) after topical ocular, subcutaneous and intravitreal administration; assay type: in vivo, New Zealand White rabbits; settings: New Zealand White, rabbit, cornea, subcutaneous, 5 mg/kg/dose, Cornea, 2 hr, OS; sodium salt, subcutaneous 5 mg/kg/dose, Group 2; read-out: Cornea Conc. (ng/g) OS
ASSAY ENDPOINT: concentration at 2 h (ng/g)

[[record]]
compound = "COC(=O)N[C@@H](Cc1ccccc1)C(=O)N[C@@H](Cc1ccc(NS(=O)(=O)O)cc1)c1csc(-c2cccs2)n1 [Compound 1]"
obs_value = 11


* * *

Experiment: Ocular tissue concentrations (aqueous humor, vitreous humor, iris, retina, choroid, cornea) after topical ocular, subcutaneous and intravitreal administration
Format: in vivo, New Zealand White rabbits
Conditions: New Zealand White, rabbit, cornea homogenate, other: intravitreal, 2.5 mg/eye, Cornea homogenate, 48 hr, left eye, intravitreal 2.5 mg/eye (group 5), individual animals; read-out: Conc. (ng/mL) OS
Experimental: To measure the concentration of Compound 1 in plasma and ocular tissues following topical ocular, subcutaneous, and intravitreal administration, New Zealand White rabbits were administered Compound 1, and plasma and ocular samples were collected at pre-determined time points. […] Ocular tissue samples from both eyes of each animal were collected and weights were recorded. Plasma and ocular tissue sample concentrations of Compound 1 were determined by LC-MS/MS. […]
ASSAY ENDPOINT: concentration at 48 hr (ng/mL)

[[record]]
molecule = "COC(=O)N[C@@H](Cc1ccccc1)C(=O)N[C@@H](Cc1ccc(NS(=O)(=O)O)cc1)c1csc(-c2cccs2)n1 [Compound 1]"
assay_endpoint = "concentration at 48 hr"
obs_value = 293


* * *

assay: Plasma concentrations and pharmacokinetic parameters after topical ocular, subcutaneous and intravitreal administration; type: in vivo, New Zealand White rabbits; settings: New Zealand White, rabbit, plasma, other: intravitreal, 2.5 mg, plasma; intravitreal 2.5 mg/eye (~1.54 mg/kg), suspension
ASSAY ENDPOINT: half-life (h)

[[record]]
compound = "COC(=O)N[C@@H](Cc1ccccc1)C(=O)N[C@@H](Cc1ccc(NS(=O)(=O)O)cc1)c1csc(-c2cccs2)n1 [Compound 1 free acid]"
unit_of_measure = "h"
obs_value = 16.5


* * *

experiment: Ocular tissue concentrations (aqueous humor, vitreous humor, iris, retina, choroid, cornea) after topical ocular, subcutaneous and intravitreal administration; format: in vivo, New Zealand White rabbits; conditions: New Zealand White, rabbit, cornea, subcutaneous, 5 mg/kg/dose, TABLE 16: Cornea, 2 hr, OD; free acid, subcutaneous 5 mg/kg/dose, Group 3; read-out: Cornea Conc. (ng/g) OD
ASSAY ENDPOINT: concentration at 2 h (ng/g)

[[record]]
smiles_notation = "COC(=O)N[C@@H](Cc1ccccc1)C(=O)N[C@@H](Cc1ccc(NS(=O)(=O)O)cc1)c1csc(-c2cccs2)n1"
assay_endpoint = "concentration at 2 h"
unit_of_measure = "ng/g"
obs_value = 5.65


* * *

test: Ocular tissue concentrations (aqueous humor, vitreous humor, iris, retina, choroid, cornea) after topical ocular, subcutaneous and intravitreal administration; assay type: in vivo, New Zealand White rabbits; details: New Zealand White, rabbit, aqueous humor, other: intravitreal, 2.5 mg per eye, Group 4 intravitreal 2.5 mg per eye; 72 hr; read-out: aqueous humor Average Conc.
Where a name gives a salt, the structure may show the parent alone.
ASSAY ENDPOINT: concentration at 72 hr (ng/g)

[[record]]
compound = "COC(=O)N[C@@H](Cc1ccccc1)C(=O)N[C@@H](Cc1ccc(NS(=O)(=O)O)cc1)c1csc(-c2cccs2)n1 [Compound 1 sodium salt]"
assay_endpoint = "concentration at 72 hr"
unit_of_measure = "ng/g"
obs_value = 34.5


* * *

experiment: Ocular tissue concentrations (aqueous humor, vitreous humor, iris, retina, choroid, cornea) after topical ocular, subcutaneous and intravitreal administration; format: in vivo, New Zealand White rabbits; settings: New Zealand White, rabbit, iris homogenate, subcutaneous, 5 mg/kg/dose, Iris homogenate, 1 hr, OD; sodium salt, subcutaneous 5 mg/kg/dose, Group 2; read-out: Iris Conc. (ng/mL) OD
ASSAY ENDPOINT: concentration at 1 h (ng/mL)

[[record]]
compound = "COC(=O)N[C@@H](Cc1ccccc1)C(=O)N[C@@H](Cc1ccc(NS(=O)(=O)O)cc1)c1csc(-c2cccs2)n1 [Compound 1]"
assay_endpoint = "concentration at 1 h"
unit_of_measure = "ng/mL"
obs_value = 11.4


These data points were gathered from patent US11666558B2.
